- EXPERIMENT: qHTS of pediatric cancer cell lines to identify multiple opportunities for drug repurposing: Primary screen for SJ-GBM2 cells (AID 1347091)
- EXPERIMENTAL_CONTEXT: SJ-GBM2 viability, CellTiter-Glo luminescence, 48 h; series mostly up to 46 µM
Records with an inconclusive call do not appear. Activity calls are given as the source filed them. Calls follow the shape of the dose curve; as a rule, active = well fitted cell-killing curve with a large enough effect; inconclusive = small, poorly fitted or top-dose-only effect; inactive = no such curve, though single readings can be large or run the other way.
Labels: class 1 = active, class 0 = inactive

MOLECULE	CLASSIFICATION
CC(=O)NC(=O)c1ccccc1O	class 0
O=C(Nc1cccc(C2=NCCN2)c1)Nc1cccc(C2=NCCN2)c1	class 0
Cc1ccc(-c2ncc(Cl)cc2-c2ccc(S(C)(=O)=O)cc2)cn1	class 0
Cc1ccccc1OCC(O)CO (stereo not drawn)	class 0
CN(C)CCC[C@@]1(c2ccc(F)cc2)OCc2cc(C#N)ccc21	class 0
Cn1c(=O)c2[nH]c(Br)nc2n(C)c1=O	class 0
C=C[C@@]1(C)CC(=O)[C@]2(O)[C@@]3(C)[C@@H](O)CCC(C)(C)[C@@H]3[C@H](O)[C@H](OC(C)=O)[C@@]2(C)O1	class 0
C[C@H]1O[C@@H](O[C@H]2CC[C@@]3(C)[C@H](CC[C@@H]4[C@@H]3C[C@@H](O)[C@]3(C)[C@@H](C5=CC(=O)OC5)CC[C@]43O)C2)C[C@H](O)[C@@H]1O[C@H]1C[C@H](O)[C@H](O[C@H]2C[C@H](O)[C@H](O[C@@H]3O[C@H](CO)[C@@H](O)[C@H](O)[C@H]3O)[C@@H](C)O2)[C@@H](C)O1	class 1
O=C(NC1CCN(CCc2c[nH]c3ccccc23)CC1)c1ccccc1	class 0
COc1cc(N)c(Cl)cc1C(=O)NC1CCN(Cc2ccccc2)CC1	class 0
COc1ccc(CN(CCN(C)C)c2ncccn2)cc1	class 0
CCCc1ncc(C[n+]2ccccc2C)c(N)n1	class 0
CCCCc1cc2ccccc2c(OCCN(C)C)n1	class 0

* * *

- TESTED_TARGET: Cytochrome P450 1A2 (Homo sapiens)
- EXPERIMENT: p450-cyp1a2 (AID 410)
- EXPERIMENTAL_CONTEXT: recombinant CYP1A2, luciferin-ME demethylation, luminescence; series mostly up to 25.6 µM
Records with an inconclusive call do not appear. Activity calls are given as the source filed them. Calls come from the whole dose curve.
Labels: 1 (yes) (active), 0 (no) (inactive)

1) COc1cc(N)c(Cl)cc1C(=O)NC1CCN(Cc2ccccc2)CC1 1 (yes)
2) Cc1cc(-c2ccccc2)nnc1NCCN1CCOCC1 1 (yes)
3) Nc1ccc(S(=O)(=O)Nc2cnc3ccccc3n2)cc1 0 (no)
4) O=C(c1ccc(F)cc1)C1CCN(CCn2c(=S)[nH]c3ccccc3c2=O)CC1 1 (yes)
5) COc1ccccc1N1CCN(CCCCNC(=O)c2ccc(-c3ccc(C(C)=O)cc3)cc2)CC1 1 (yes)
6) CCCN(CCC)S(=O)(=O)c1ccc(C(=O)O)cc1 0 (no)
7) C[N+]1(C)CCC(=C(c2ccccc2)c2ccccc2)CC1 0 (no)
8) NS(=O)(=O)c1cc(C(=O)O)cc(N2CCCC2)c1Oc1ccccc1 0 (no)

* * *

- System: TAB113
- EXPERIMENT: qHTS profiling for inhibitors of Plasmodium falciparum proliferation (AID 504749); also: nearly all actives have a fitted effect of over 60% in size
- EXPERIMENTAL_CONTEXT: P. falciparum in erythrocytes, SYBR Green DNA, 72 h; series mostly up to 28.7 µM
Records with an inconclusive call do not appear. Activity calls are given as the source filed them. Calls follow the shape of the dose curve; as a rule, active = well fitted inhibition curve with a large enough effect; inconclusive = small, poorly fitted or top-dose-only effect; inactive = flat fitted curve, though single readings scatter.
Labels: TRUE = active, FALSE = inactive

MOLECULE	CLASSIFICATION
CC(=O)O[C@]1(C(C)=O)CC[C@H]2[C@@H]3C=C(Cl)C4=CC(=O)CC[C@]4(C)[C@H]3CC[C@@]21C	TRUE
CCCCCCCCCCCCCCCC(=O)O	FALSE
CCc1ccc(C(=O)C(C)CN2CCCCC2)cc1 (centres undefined)	FALSE
CC(C)Nc1cccnc1N1CCN(C(=O)c2cc3cc(NS(C)(=O)=O)ccc3[nH]2)CC1	FALSE
CCOC(=O)Nc1ccc2c(c1)N(C(=O)CCN1CCOCC1)c1ccccc1S2	FALSE
O=C(Nc1cccc(C2=NCCN2)c1)Nc1cccc(C2=NCCN2)c1	TRUE
CN(C)C(=O)Nc1ccc(Cl)c(Cl)c1	FALSE
CN1CCC[C@@H]1CCO[C@](C)(c1ccccc1)c1ccc(Cl)cc1	FALSE
CCOc1ccccc1OCCN[C@H](C)Cc1ccc(OC)c(S(N)(=O)=O)c1	FALSE
COP(=O)(OC)OC(c1ccc(Cl)cc1)P(=O)(OC)OC (centres undefined)	FALSE
FC(F)(F)C(F)(F)C(F)(F)C(F)(F)C(F)(F)C(F)(F)C(F)(F)C(F)(F)Br	FALSE
Cc1ccc(S(=O)(=O)NC(=O)NC2CCCC2)cc1	FALSE
COc1ccc(CN(CCN(C)C)c2ncccn2)cc1	FALSE
O=C1C(CCS(=O)c2ccccc2)C(=O)N(c2ccccc2)N1c1ccccc1 (centres undefined)	FALSE

* * *

# max response per record follows
- EXPERIMENT: qHTS Assay for Identifying Gametocytocidal Compounds (AID 743244);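 also: % is scaled to controls: 0 for no effect and ±100 for the full control effect; actives lower the fluorescent signal which means gametocytes are killed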
- EXPERIMENTAL_CONTEXT: P. falciparum 3D7 stage III-V gametocytes, alamarBlue, 72 h; hits give low values
Records with an inconclusive call do not appear.
PROPERTY_LABEL: max response (%)

COMPOUND	PROPERTY_LABEL	RESULT
CCCCNc1ccc(C(=O)OCCOCCOCCOCCOCCOCCOCCOCCOCCOC)cc1	max response	-1.52
Nc1nc(Cl)nc2c1ncn2[C@@H]1O[C@H](CO)[C@@H](O)[C@@H]1F	max response	14.9
Cl/C(=C\n1cncn1)c1ccc(Cl)cc1Cl	max response	-6.68
COC(=O)C(c1ccccc1Cl)N1CCc2sccc2C1 (stereo unspecified)	max response	14.8
O=C1OC2(c3ccccc31)c1cc(Br)c(O)c(Br)c1Oc1c2cc(Br)c(O)c1Br	max response	-3.43
CCCCNC(=O)NS(=O)(=O)c1ccc(N)cc1	max response	19.8
CC(=O)O[C@H]1C[C@@H]2CC[C@@H]3[C@H](CC[C@@]4(C)[C@H]3C[C@H]([N+]3(C)CCCCC3)[C@@H]4OC(C)=O)[C@@]2(C)C[C@@H]1N1CCCCC1	max response	-2.39
Cc1cc(CC(=O)O)c(C)n1-c1ccc(Cl)cc1	max response	-9.92
NCc1ccccc1Sc1ccccc1CO	max response	-6.07
CCCCC(CC)CN1CN(CC(CC)CCCC)CC(C)(N)C1 (stereo unspecified)	max response	4.3
CCOC(=O)Nc1ccc2c(c1)N(C(=O)CCN1CCOCC1)c1ccccc1S2	max response	12.1
CC(=O)NC(=O)c1ccccc1O	max response	-9.03
O=C(Nc1ccc([N+](=O)[O-])cc1)Nc1ccc([N+](=O)[O-])cc1	max response	3.29
CCCCc1cc2ccccc2c(OCCN(C)C)n1	max response	-5.86
CCc1oc2ccccc2c1C(=O)c1cc(I)c(O)c(I)c1	max response	0.665
O=C(NC1CCN(CCc2c[nH]c3ccccc23)CC1)c1ccccc1	max response	-6.9
FC(F)(F)C(F)(F)C(F)(F)C(F)(F)C(F)(F)C(F)(F)C(F)(F)C(F)(F)Br	max response	5.68
CC(CNC1CCCCC1)OC(=O)c1ccccc1 (stereo unspecified)	max response	10.4
COc1cc(O)c(C(=O)c2ccccc2)cc1S(=O)(=O)O	max response	-9.98
COc1cc(C(=S)N2CCOCC2)ccc1O	max response	19.6
CCOC(=O)C(C#N)=C(c1ccccc1)c1ccccc1	max response	-6.54
O=[N+]([O-])c1cccc(S(=O)(=O)NCCNS(=O)(=O)c2cccc([N+](=O)[O-])c2)c1	max response	1.36
Cc1ccc(S(=O)(=O)NC(=O)NC2CCCC2)cc1	max response	3.98
CC1(COc2ccc(CC3SC(=O)NC3=O)cc2)CCCCC1 (stereo unspecified)	max response	2.09
C[C@]12CCC(=O)C=C1C=C[C@@H]1[C@@H]2CC[C@@]2(C)[C@H]1CC[C@@]21CCC(=O)O1	max response	1.8
CC(C)(C)NC[C@H](O)COc1cccc2c1CCCC2=O	max response	-0.406
O=C(O)P(=O)(O)O	max response	10.4
Oc1ccccc1C=NCc1ccccc1	max response	0.984
COc1cc(C(=O)N2CCCCCCC2)cc(OC)c1OC	max response	12.8
CC(C(=O)O)c1cccc(Oc2ccccc2)c1 (stereo unspecified)	max response	17.6
CC(C)(C)NC[C@H](O)COc1nsnc1N1CCOCC1	max response	-3.64
NS(=O)(=O)c1cc2c(cc1Cl)NC(CC1CCCC1)NS2(=O)=O (stereo unspecified)	max response	17.3
CN(C)CCOC(=O)C(c1ccccc1)C1(O)CCCC1 (stereo unspecified)	max response	1.53
CN1CCN(c2c(F)cc3c(=O)c(C(=O)O)cn4c3c2SCC4)CC1	max response	9.27
Nc1ccc(S(=O)(=O)Nc2cnc3ccccc3n2)cc1	max response	-6.45
Cc1cc(NS(=O)(=O)c2ccc(N)cc2)nc(C)n1	max response	18.7
O=C(Nc1ccccc1)OCC(CN1CCCCC1)OC(=O)Nc1ccccc1 (stereo unspecified)	max response	3.58
C=CCN1CCc2nc(N)sc2CC1	max response	14.4
O=C1C(O)=C(O)C(=O)C(O)=C1O	max response	-3.08
CNCCc1ccccn1	max response	-0.406
O=C(O)CCc1nc2ccccc2[nH]1	max response	8.17
COc1ccc2c(c1)c1c3n2CCN(C)C3=NCC1	max response	18.4
O=C(NCCc1c[nH]c2ccccc12)c1cccnc1	max response	-3.02
CCCCOC(=O)CC(CC(=O)OCCCC)(OC(C)=O)C(=O)OCCCC	max response	2.63
Oc1c(Cl)cc(Cl)c(Cl)c1Cc1c(O)c(Cl)cc(Cl)c1Cl	max response	14.7
COc1ccccc1N1CCN(CCCCNC(=O)c2ccc(-c3ccc(C(C)=O)cc3)cc2)CC1	max response	3.48
